target_system: hERG (Homo sapiens)
experiment_notes: Automated patch clamp, hERG current block (consensus step-ramp protocol)
condition_context: log IC50, hERG K+ current inhibition, site_platform s11_p1
attribute_measured: IC50 (µM)
Unit µM implied. Number only.

Query string: Name the recorded IC50 of the item Cc1cccc(C)c1OCC(C)N (stereo not shown) in your answer.
Result string: 15.8

###

target_system: UniProt Q12809
experiment_notes: Automated patch clamp, hERG current block (consensus step-ramp protocol)
condition_context: hERG K+ current log IC50, s15_p1, HEK293, 22–23 °C
attribute_measured: pIC50
// returns pIC50 (minus log10 of molar concentration), number only

Query string: Assign pIC50 to the following record: Cc1cccc(C)c1OCC(C)N (stereo not shown)
Result string: 4.62

###

target_system: hERG (Homo sapiens, UniProt Q12809)
experiment_notes: in vitro
condition_context: hERG K+ current inhibition, Mean
attribute_measured: inhibition at 7 min, 1e-09 mol/L (%)
Value expressed in %; do not type the unit.

Query string: Provide one value: measured inhibition at 7 min, 1e-09 mol/L of COc1cc(N)c(Cl)cc1C(=O)NC1CCN(CCCOc2ccc(F)cc2)CC1OC (stereo not drawn) [cis, cisapride]
Result string: 12

###

target_system: hERG (Homo sapiens, UniProt Q12809)
experiment_notes: Automated patch clamp, hERG current block (consensus step-ramp protocol)
condition_context: human, hERG K+ current inhibition, Mean, site_platform s12_p2; 1.00E-06 mol/L
attribute_measured: inhibition at 1e-06 mol/L

Query string: Please report inhibition at 1e-06 mol/L for the following molecule: Cc1cccc(C)c1OCC(C)N (stereo not shown)
Result string: 0.2%

###

target_system: hCav1.2 (Homo sapiens)
Sequence (Q13936 whole entry): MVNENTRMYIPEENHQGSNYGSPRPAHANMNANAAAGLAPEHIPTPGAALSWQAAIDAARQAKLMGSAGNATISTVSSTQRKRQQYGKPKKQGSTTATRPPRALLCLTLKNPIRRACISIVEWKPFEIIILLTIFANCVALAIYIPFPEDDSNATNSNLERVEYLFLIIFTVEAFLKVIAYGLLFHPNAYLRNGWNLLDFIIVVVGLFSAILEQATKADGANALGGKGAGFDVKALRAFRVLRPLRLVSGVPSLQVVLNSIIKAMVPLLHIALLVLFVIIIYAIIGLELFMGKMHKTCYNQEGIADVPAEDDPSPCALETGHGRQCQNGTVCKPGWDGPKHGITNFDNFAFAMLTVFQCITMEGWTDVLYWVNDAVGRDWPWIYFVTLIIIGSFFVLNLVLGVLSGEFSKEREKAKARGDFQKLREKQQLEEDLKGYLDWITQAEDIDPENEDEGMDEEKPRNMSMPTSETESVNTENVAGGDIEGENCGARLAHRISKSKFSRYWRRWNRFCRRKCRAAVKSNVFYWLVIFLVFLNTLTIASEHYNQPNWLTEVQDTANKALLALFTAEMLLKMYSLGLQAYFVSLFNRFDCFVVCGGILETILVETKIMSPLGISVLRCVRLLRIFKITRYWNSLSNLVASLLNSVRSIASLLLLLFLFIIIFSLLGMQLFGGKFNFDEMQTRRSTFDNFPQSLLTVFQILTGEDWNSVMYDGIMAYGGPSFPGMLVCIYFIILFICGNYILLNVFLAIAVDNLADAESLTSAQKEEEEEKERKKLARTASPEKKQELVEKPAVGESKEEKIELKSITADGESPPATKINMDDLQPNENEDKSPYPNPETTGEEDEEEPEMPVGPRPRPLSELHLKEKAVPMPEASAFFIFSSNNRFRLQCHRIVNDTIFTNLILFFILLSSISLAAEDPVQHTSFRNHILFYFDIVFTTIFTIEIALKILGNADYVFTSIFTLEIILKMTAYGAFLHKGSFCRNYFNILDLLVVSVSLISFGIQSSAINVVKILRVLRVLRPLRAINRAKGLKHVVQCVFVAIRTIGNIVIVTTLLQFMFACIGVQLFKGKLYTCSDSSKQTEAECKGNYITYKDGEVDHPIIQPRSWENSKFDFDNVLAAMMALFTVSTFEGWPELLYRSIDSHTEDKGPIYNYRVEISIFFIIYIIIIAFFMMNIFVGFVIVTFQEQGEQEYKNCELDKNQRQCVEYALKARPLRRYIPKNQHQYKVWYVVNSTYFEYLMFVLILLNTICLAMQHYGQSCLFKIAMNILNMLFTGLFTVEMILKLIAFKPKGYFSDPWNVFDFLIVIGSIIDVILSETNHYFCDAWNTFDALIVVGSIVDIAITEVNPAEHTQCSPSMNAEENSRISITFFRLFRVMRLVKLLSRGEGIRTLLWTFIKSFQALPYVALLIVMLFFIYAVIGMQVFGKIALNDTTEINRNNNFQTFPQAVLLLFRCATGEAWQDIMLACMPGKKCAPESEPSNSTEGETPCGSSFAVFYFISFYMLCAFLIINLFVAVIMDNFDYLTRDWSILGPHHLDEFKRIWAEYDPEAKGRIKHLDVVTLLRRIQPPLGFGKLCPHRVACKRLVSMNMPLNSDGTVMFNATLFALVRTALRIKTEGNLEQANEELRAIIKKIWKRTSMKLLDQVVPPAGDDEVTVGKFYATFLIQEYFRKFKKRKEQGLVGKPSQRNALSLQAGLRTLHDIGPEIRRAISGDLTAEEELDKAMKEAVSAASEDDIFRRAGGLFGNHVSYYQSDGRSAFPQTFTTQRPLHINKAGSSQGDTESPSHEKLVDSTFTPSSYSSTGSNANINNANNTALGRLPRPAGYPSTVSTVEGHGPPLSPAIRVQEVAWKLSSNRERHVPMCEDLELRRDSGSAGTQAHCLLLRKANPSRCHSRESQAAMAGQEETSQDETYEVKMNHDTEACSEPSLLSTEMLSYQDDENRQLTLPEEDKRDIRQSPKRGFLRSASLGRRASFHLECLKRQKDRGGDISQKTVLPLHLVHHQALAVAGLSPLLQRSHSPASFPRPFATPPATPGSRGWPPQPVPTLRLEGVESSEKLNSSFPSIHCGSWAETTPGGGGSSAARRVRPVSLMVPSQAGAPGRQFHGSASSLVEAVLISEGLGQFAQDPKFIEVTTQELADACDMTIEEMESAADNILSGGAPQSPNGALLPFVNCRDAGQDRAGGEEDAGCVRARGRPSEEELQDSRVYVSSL
Sequence (Q08289 whole entry partner): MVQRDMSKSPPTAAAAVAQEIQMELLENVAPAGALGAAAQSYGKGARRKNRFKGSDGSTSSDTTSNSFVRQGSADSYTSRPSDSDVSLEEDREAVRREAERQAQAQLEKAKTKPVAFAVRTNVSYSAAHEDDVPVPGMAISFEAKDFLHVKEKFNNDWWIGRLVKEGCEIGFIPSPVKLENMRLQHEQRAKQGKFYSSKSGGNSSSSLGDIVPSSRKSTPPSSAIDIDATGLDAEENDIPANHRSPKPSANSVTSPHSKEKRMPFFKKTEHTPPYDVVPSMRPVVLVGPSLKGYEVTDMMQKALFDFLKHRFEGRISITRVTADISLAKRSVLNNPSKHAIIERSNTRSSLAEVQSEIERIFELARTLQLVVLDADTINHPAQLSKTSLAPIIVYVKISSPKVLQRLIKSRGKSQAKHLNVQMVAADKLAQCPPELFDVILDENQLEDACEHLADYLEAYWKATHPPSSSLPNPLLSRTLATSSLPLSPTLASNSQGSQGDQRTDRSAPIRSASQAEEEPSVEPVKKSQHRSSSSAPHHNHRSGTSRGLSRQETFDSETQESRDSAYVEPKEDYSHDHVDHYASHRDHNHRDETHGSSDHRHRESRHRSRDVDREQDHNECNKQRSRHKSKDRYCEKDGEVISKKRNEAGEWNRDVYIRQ
Sequence (P54289 25-956 partner limits assumed): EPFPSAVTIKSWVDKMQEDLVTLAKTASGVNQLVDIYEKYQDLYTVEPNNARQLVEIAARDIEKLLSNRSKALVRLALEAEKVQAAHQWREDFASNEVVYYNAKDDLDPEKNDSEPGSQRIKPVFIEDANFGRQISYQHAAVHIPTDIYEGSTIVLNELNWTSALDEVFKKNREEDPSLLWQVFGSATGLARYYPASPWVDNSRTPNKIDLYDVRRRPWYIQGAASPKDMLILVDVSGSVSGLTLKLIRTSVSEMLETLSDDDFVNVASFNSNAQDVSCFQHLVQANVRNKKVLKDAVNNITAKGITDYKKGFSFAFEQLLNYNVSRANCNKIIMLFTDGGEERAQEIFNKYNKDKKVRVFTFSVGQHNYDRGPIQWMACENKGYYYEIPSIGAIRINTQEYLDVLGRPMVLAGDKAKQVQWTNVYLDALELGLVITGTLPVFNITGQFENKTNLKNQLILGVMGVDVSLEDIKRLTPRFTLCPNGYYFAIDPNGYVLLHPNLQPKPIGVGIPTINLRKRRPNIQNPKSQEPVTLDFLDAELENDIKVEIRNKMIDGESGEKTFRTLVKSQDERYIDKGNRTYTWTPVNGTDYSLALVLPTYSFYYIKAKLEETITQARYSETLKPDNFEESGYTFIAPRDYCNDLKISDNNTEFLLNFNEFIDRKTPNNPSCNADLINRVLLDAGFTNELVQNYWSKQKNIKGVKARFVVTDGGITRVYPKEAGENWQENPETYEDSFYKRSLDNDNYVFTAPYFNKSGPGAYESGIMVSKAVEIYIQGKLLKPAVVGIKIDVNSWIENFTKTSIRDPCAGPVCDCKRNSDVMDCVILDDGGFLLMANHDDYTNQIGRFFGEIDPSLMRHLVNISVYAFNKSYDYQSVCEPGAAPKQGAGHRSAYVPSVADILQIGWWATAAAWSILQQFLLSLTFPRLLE
Sequence (P54289 957-1103 partner limits assumed): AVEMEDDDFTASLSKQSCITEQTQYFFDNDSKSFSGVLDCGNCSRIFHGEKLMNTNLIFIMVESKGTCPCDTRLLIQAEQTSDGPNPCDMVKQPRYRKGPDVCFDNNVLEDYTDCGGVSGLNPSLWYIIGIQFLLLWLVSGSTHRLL
experiment_notes: Automated patch clamp, hCav1.2 current block
condition_context: site s01_p1; 3.00E-07 mol/L
attribute_measured: Peak hCav1.2 Ca2+ current inhibition, Mean (%)
Respond numerically; units are % and should not be typed.

Query string: Give the reported Peak hCav1.2 Ca2+ current inhibition, Mean for this molecule. COc1cc(N)c(Cl)cc1C(=O)NC1CCN(CCCOc2ccc(F)cc2)CC1OC (stereo not drawn) [cis, cisapride]
Result string: 8.1

Query string: Find the measured Peak hCav1.2 Ca2+ current inhibition, Mean of Cc1nccn1CC1CCc2c(c3ccccc3n2C)C1=O (stereo not shown) [ond, ondansetron] and report it.
Result string: 3.2

Query string: Look up and report measured Peak hCav1.2 Ca2+ current inhibition, Mean for this entry: CC(C)(C)c1ccc(C(O)CCCN2CCC(C(O)(c3ccccc3)c3ccccc3)CC2)cc1 (stereo not shown) [ter, terfenadine]
Result string: 35.6

Query string: Read the entry CC(C)COCC(CN(Cc1ccccc1)c1ccccc1)N1CCCC1 (stereo not shown) [bep, bepridil] and write its reported Peak hCav1.2 Ca2+ current inhibition, Mean.
Result string: 16.7

###

target_system: hERG (Homo sapiens)
experiment_notes: Automated patch clamp, hERG current block (consensus step-ramp protocol)
condition_context: human, hERG K+ current inhibition, Mean, site_platform s14_p1; 1.00E-04 mol/L
attribute_measured: inhibition at 7 min, 0.0001 mol/L (%)
I only need the number, in %, no unit after it.

Query string: Please look at this molecule and report its inhibition at 7 min, 0.0001 mol/L: Cc1cccc(C)c1OCC(C)N (stereo not shown) [mex, mexiletine]
Result string: 60.2
